Measured pIC50, listed per entry.
Test system: Full length human recombinant HDAC6 protein (Homo sapiens, UniProt Q9UBN7)
Assay: In vitro histone deacetylase assay: enzymatic HDAC6 electrophoretic mobility shift assay
Experimental context: 1 nM enzyme, 2 μM peptide substrate RHKK(Ac)-NH2, 25° C., 12 concentrations; read-out: Inhibitory Concentration (IC50) Values against HDAC6, Activity Range
Method: The enzymatic HDAC6 assay was performed using electrophoretic mobility shift assay. […] The terminated assay plates were analyzed on LabChip® 3000 microfluidic electrophoresis instrument (Perkin Elmer/Caliper Life Sciences). The fluorescence intensity of the electrophoretically separated de-acetylated product and substrate peptide was measured. […] Percent inhibition (Pinh) is determined using the following equation: […]
pIC50: −log10 of the molar value.
Measurement name: pIC50

> print(dat)
                                test.smiles  measurement.name      measured
1  O=C(NO)c1ccc2c(c1)OCCN(C(=O)CN1CCOCC1)C2             pIC50        < 6.30
2  COc1cccc(C(C)(C)C(=O)N2CCOc3cc(C(=O)NO)ccc3C2)c1             pIC50  6.30 to 7.00
3  COCC1(C(=O)N2CCOc3cc(C(=O)NO)ccc3[C@@H]2C)COC1             pIC50        ≥ 7.00
4  CC(C)[C@H]1COc2cc(C(=O)NO)ccc2CN1C(=O)C1(C)CCC1             pIC50        ≥ 7.00
5  O=C(NO)c1ccc2c(c1)OCCN(C(=O)C1(c3ccccc3)CCC1)C2             pIC50        ≥ 7.00

---

Measured pIC50, listed per entry.
Test system: Full length human recombinant HDAC6 protein (Homo sapiens, UniProt Q9UBN7)
Sequence (Q9UBN7 1-1215): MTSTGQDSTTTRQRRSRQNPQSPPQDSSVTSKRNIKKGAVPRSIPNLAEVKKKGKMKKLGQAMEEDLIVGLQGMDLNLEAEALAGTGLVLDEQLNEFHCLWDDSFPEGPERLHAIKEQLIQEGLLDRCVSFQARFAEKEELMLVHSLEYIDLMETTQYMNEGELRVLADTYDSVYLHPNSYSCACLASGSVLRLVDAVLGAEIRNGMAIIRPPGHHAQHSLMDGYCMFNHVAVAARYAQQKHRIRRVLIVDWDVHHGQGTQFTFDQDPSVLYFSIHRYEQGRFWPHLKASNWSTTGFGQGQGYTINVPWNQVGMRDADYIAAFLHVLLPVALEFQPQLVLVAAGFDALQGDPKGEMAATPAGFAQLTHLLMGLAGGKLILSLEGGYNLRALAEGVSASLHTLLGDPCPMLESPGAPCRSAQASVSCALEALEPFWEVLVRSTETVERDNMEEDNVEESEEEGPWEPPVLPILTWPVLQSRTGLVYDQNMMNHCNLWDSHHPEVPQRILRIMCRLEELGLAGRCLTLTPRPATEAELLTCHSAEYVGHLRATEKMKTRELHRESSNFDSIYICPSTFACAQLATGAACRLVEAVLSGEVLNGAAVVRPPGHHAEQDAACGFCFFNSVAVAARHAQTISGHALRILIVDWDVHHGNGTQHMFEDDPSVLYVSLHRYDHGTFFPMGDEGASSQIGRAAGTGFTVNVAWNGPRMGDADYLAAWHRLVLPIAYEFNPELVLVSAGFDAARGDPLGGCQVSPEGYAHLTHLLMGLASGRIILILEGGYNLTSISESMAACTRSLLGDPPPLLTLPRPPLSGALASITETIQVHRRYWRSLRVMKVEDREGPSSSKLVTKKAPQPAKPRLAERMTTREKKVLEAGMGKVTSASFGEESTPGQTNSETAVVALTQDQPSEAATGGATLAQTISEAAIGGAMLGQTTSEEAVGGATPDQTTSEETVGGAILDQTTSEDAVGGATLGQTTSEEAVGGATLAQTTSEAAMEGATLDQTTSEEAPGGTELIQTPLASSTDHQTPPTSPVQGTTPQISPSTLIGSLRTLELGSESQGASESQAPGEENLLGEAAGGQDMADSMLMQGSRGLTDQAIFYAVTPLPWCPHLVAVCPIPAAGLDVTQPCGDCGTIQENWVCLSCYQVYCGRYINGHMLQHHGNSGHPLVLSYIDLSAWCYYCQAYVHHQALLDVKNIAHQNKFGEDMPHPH
Assay: In vitro histone deacetylase assay: enzymatic HDAC6 electrophoretic mobility shift assay
Experimental context: 1 nM enzyme, 2 μM peptide substrate RHKK(Ac)-NH2, 25° C., 12 concentrations; read-out: Inhibitory Concentration (IC50) Values against HDAC6, Activity Range
Method: The enzymatic HDAC6 assay was performed using electrophoretic mobility shift assay. […] The terminated assay plates were analyzed on LabChip® 3000 microfluidic electrophoresis instrument (Perkin Elmer/Caliper Life Sciences). The fluorescence intensity of the electrophoretically separated de-acetylated product and substrate peptide was measured. […] Percent inhibition (Pinh) is determined using the following equation: […]
pIC50: −log10 of the molar value.
Measurement name: pIC50

> print(dat)
                                   compound      measured
1  CC(C)(C)OC(=O)N1CCC2(CC1)c1ccccc1OC2C(=O)N1CCOc2cc(C(=O)NO)ccc2C1 (stereo not drawn)  6.30 to 7.00
2  COC(C(=O)N1CCOc2cc(C(=O)NO)ccc2C1)c1ccccc1 (stereo not drawn)  6.30 to 7.00
3       C[C@@H]1CN(C=O)Cc2ccc(C(=O)NO)cc2O1        ≥ 7.00
4  COCC1(C(=O)N2CCOc3cc(C(=O)NO)ccc3[C@@H]2C)CCOCC1        ≥ 7.00
5  O=C(NO)c1ccc2c(c1)OCCN(C(=O)C1(c3ccccc3)CC1)C2        ≥ 7.00
6  O=C(NO)c1ccc2c(c1)OCCN(C(=O)[C@H]1CCOC1)C2        ≥ 7.00
7      O=C(NO)c1ccc2c(c1)OCCN(C(=O)C1CC1)C2  6.30 to 7.00
8  O=C(NO)c1ccc2c(c1)OCCN(C(=O)C1CC3(CCNCC3)c3ccccc31)C2 (stereo not drawn)  6.30 to 7.00
9  COC1(C(=O)N2Cc3ccc(C(=O)NO)cc3OC[C@@H]2C)CCOCC1        ≥ 7.00

---

Measured IC50, listed per entry.
Test system: Full length human recombinant HDAC6 protein (Homo sapiens, UniProt Q9UBN7)
Sequence (Q9UBN7 1-1215): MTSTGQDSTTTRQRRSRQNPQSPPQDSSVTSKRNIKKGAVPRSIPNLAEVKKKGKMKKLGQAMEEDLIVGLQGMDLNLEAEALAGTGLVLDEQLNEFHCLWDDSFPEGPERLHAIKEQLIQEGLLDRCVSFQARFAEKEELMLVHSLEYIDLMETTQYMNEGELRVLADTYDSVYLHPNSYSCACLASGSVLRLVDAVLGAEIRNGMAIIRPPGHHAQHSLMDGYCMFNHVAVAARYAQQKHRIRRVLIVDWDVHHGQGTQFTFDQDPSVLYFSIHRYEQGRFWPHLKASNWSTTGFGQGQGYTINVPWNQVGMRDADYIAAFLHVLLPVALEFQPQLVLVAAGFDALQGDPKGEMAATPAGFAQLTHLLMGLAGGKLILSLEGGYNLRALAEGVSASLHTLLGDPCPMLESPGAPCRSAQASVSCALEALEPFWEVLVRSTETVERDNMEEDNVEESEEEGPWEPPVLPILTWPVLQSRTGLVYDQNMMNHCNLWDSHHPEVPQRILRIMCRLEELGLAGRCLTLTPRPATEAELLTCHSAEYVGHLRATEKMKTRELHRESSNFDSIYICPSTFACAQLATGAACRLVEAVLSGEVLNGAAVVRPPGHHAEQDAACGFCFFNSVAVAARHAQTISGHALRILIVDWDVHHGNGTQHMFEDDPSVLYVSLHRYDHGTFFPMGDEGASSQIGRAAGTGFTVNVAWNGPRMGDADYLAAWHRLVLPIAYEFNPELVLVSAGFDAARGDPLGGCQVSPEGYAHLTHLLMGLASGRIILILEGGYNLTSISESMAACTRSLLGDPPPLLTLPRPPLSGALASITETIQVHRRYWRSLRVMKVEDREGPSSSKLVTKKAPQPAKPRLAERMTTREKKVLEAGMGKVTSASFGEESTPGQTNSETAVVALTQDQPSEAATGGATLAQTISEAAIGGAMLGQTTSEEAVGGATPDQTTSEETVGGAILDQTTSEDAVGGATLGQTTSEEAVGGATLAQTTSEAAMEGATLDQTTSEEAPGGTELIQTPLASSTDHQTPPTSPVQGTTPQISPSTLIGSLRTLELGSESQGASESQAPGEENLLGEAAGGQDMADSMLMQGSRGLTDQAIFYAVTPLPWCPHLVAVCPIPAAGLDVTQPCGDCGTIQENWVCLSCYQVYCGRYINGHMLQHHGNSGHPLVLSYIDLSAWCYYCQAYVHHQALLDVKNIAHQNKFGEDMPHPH
Assay: In vitro histone deacetylase assay: enzymatic HDAC6 electrophoretic mobility shift assay
Experimental context: 1 nM enzyme, 2 μM peptide substrate RHKK(Ac)-NH2, 25° C., 12 concentrations; read-out: Inhibitory Concentration (IC50) Values against HDAC6, Activity Range
Measurement name: IC50

> print(dat)
                                test.smiles       measured
1  C[C@H]1c2ccc(C(=O)NO)cc2OCCN1C(=O)[C@@H]1CCCOC1       ≤ 0.1 µM
2  O=C(NO)c1ccc2c(c1)OCCN(C(=O)c1ccc3[nH]ccc3c1)C2       ≤ 0.1 µM
3               O=CN1CCOc2cc(C(=O)NO)ccc2C1       ≤ 0.1 µM
4   O=C(NO)c1cnc2c(c1)OCCN(C(=O)C1CCCCC1)C2  0.1 to 0.5 µM
5     O=C(NO)c1ccc2c(c1)OCCN(C(=O)C1CCC1)C2       ≤ 0.1 µM
6  O=C(NO)c1ccc2c(c1)OC[C@H](Cc1ccccc1)N(C(=O)C1CCOCC1)C2       ≤ 0.1 µM

Data provenance is patent US11891365B2.
